Experimental System: Human LBAT (Homo sapiens, UniProt Q14973)
Construct: cultured under Geneticin selection
Sequence (Q14973 whole entry): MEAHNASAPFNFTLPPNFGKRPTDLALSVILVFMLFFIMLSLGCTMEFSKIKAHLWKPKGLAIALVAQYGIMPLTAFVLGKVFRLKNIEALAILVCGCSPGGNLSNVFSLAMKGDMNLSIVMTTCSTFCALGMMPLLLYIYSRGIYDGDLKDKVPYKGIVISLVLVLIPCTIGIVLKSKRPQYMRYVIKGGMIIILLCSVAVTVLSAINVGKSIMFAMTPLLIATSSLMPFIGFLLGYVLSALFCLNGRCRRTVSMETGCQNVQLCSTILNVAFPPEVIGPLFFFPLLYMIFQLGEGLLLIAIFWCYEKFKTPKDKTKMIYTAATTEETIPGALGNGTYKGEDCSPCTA
Test Name: LBAT (h/m) assay, human LBAT-overexpressing cells, 3H-taurocholic acid uptake
Experimental Context: read-out: hLBAT IC50
pIC50: −log10 of the molar value.
Assay Metric: pIC50

CCC1(CC)CN(c2ccc(F)cc2)c2cc(SC)c(OCC(C)(C)C(=O)O)cc2S(=O)(=O)C1 :: 7.68
CCCCC1(C)CN(c2ccc(F)cc2)c2cc(SC)c(OCC(O)C(=O)O)cc2S(=O)(=O)C1 (single isomer, unassigned) [1, diastereomer 1] :: 5.78
CCCCC1(CC)CN(c2ccc(F)cc2)c2cc(SC)c(OCC(OC)C(=O)O)cc2S(=O)(=O)C1 (stereo not shown) :: 5.52
CCCC1(CCC)CN(c2ccccc2)c2cc(SC)c(OCC(O)C(=O)O)cc2S(=O)(=O)C1 (stereo not shown) :: 5.43
CCCCC1(CC)CN(c2ccc(F)cc2)c2cc(SC)c(OCC(C)(C)C(=O)O)cc2S(=O)(=O)C1 (racemic) [Example 4] :: 6.76
CCC1(CC)CN(c2ccccc2)c2cc(SC)c(OCC(C)(F)C(=O)O)cc2S(=O)(=O)C1 (stereo not shown) :: 7.08
CCCCC1(CCCC)CN(c2ccccc2)c2cc(SC)c(OCC(OCC)C(=O)O)cc2S(=O)(=O)C1 (stereo not shown) :: 5.90
CCCCC1(C)CN(c2ccc(F)cc2)c2cc(SC)c(OCC(O)C(=O)O)cc2S(=O)(=O)C1 (single isomer, unassigned) [1, diastereomer 4] :: 5.98
CCCCC1(C)CN(c2ccc(F)cc2)c2cc(SC)c(OCC(O)C(=O)O)cc2S(=O)(=O)C1 (single isomer, unassigned) [1, diastereomer 3] :: 6.04

I: CCCCC1(CC)CN(c2ccc(F)cc2)c2cc(SC)c(OCC3(C(=O)O)CC3)cc2S(=O)(=O)C1 (racemic) [Example 2]
II: CCCCC1(C)CN(c2ccc(F)cc2)c2cc(SC)c(OCC(O)C(=O)O)cc2S(=O)(=O)C1 (single isomer, unassigned) [1, diastereomer 2]
Task item: Larger number for pIC50: I , or II ? Kindly give the label for the entry you pick.
Reply: I
(I: 6.49, II: 5.69)
